test: Cmax in CD1 mouse at 421 umol/kg, ip; format: ADME, organism-based; design: dose 421 umol/kg, route intraperitoneal; details: in vivo
Assignment: determine reported Cmax for the given compounds.
Give bare numbers, in µM.

>>> testvalue("Cc1ccc2c(c1)[n+]([O-])c(NCCN1C(C)CCCC1C)n[n+]2[O-] (configuration not stated)")
19.6

As a next step, examine the compound that follows.
For CN(C)CCNc1n[n+]([O-])c2ccc(C(C)(C)C)cc2[n+]1[O-] , what is its reported Cmax?
16.1

----------
experiment: Half life in CD1 mouse at 1000 umol/kg, ip; assay type: ADME, organism-based; details: in vivo
Provide the recorded half-life for the entries that follow.
One number for each entry, in min.

>>> testvalue("COc1ccc2c(c1)[n+]([O-])c(NCCN(C)C)n[n+]2[O-]")
51.5
>>> testvalue("CC(C)Oc1ccc2c(c1)[n+]([O-])c(NCCN(C)C)n[n+]2[O-]")
26.1
>>> testvalue("CN(C)CCNc1n[n+]([O-])c2ccc(OCC3CC3)cc2[n+]1[O-]")
33.9

Continue with the next compound.
// query half-life value for entry Cc1ccc2c(c1)[n+]([O-])c(N)n[n+]2[O-]
34.1

----------
assay: Cmax in CD1 mouse at 562 umol/kg, ip; type: ADME, organism-based; set-up: dose 562 umol/kg, route intraperitoneal; settings: in vivo
Can you tell me Cmax for the items I'm about to list?

Items follow; give Cmax for each.
1. Cc1ccc2c(c1)[n+]([O-])c(NCCN(C)C)n[n+]2[O-]
2. [O-][n+]1nc(NCCN2CCOCC2)[n+]([O-])c2ccccc21

1. 104 µM
2. 160 µM

----------
system: HT-29; assay: Effect on human HT29 cells under hypoxic conditions assessed as drug level causing 10% clonogenic survival; type: functional
Lab note: anything with Activity below 8 µM·h is marked true (1); values at 8 µM·h or higher are marked false (0).

Past entries and their recorded results:
>>> group("CCc1ccc2c(c1)[n+]([O-])c(NCCN1CCCCC1)n[n+]2[O-]")
"false (0)"
>>> group("CCc1ccc2c(c1)[n+]([O-])c(NCCN(C)C)n[n+]2[O-]")
"true (1)"
>>> group("COc1ccc2c(c1)[n+]([O-])c(NCCN1C(C)CCCC1C)n[n+]2[O-] (stereo not given)")
"false (0)"

Determine whether this compound shows Activity lower than 8 µM·h (ties excluded): CCCN(CCC)CCNc1n[n+]([O-])c2ccccc2[n+]1[O-]
true (1)

----------
system: HT-29; assay: Diffusion coefficient, D in HT29 multicellular layers; type: ADME, cell-based; conditions: human
property: D (cm²/s)
Numbers only, in cm²/s.

Some entries whose results are on file:
>>> testvalue("[O-][n+]1nc(NCCN2CCOCC2)[n+]([O-])c2ccccc21")
"3.63e-07"
>>> testvalue("Cc1ccc2c(c1)[n+]([O-])c(NCCN1C(C)CCCC1C)n[n+]2[O-] (stereo not drawn)")
"9.45e-07"

Requested read-out: D. Entry: CN(C)CCCNc1n[n+]([O-])c2ccccc2[n+]1[O-]
1.87e-07

----------
test system: HT-29; test: Ratio of IC50 for HT29 cells under oxic conditions to hypoxic conditions after 4 hrs; type: functional, Homo sapiens
property: Ratio IC50
One number for each entry.

Worked set:
>>> testvalue("CC(C)(C)c1ccc2c(c1)[n+]([O-])c(NCCN1CCOCC1)n[n+]2[O-]")
13
>>> testvalue("CC(C)Oc1ccc2c(c1)[n+]([O-])c(NCCN(C)C)n[n+]2[O-]")
162
>>> testvalue("CCCN(CCC)CCNc1n[n+]([O-])c2ccccc2[n+]1[O-]")
82

Batch lookup, Ratio IC50 per entry.
1. CC(C)c1ccc2c(c1)[n+]([O-])c(NCCN(C)C)n[n+]2[O-]
2. CCN(CC)CCNc1n[n+]([O-])c2ccc(Cl)cc2[n+]1[O-]

1. 120
2. 43

Give one value of Ratio IC50 per listed compound.
1. CCCN(CCC)CCNc1n[n+]([O-])c2ccc(C)cc2[n+]1[O-]
2. Cc1ccc2c(c1)[n+]([O-])c(NCCN1C(C)CCCC1C)n[n+]2[O-] (stereo not given)
3. CCN(CC)CCNc1n[n+]([O-])c2ccc(C(C)C)cc2[n+]1[O-]
4. Cc1ccc2c(c1)[n+]([O-])c(NCCCN1CCC(C#N)C1)n[n+]2[O-] (stereo not given)
5. [O-][n+]1nc(NCCN2CCCC2)[n+]([O-])c2ccccc21
6. COc1ccc2c(c1)[n+]([O-])c(NCCCN1CCC(C#N)C1)n[n+]2[O-] (stereo not given)

1. 108
2. 126
3. 122
4. 54
5. 70
6. 41

Hey, quick one: what's Ratio IC50 for each of these?
1. [O-][n+]1nc(NCCN2CCCCC2)[n+]([O-])c2cc(Cl)ccc21
2. CCN(CC)CCNc1n[n+]([O-])c2ccc(C)cc2[n+]1[O-]
3. COc1ccc2c(c1)[n+]([O-])c(NCCN1CCCCC1)n[n+]2[O-]

[19, 51, 24]
